Test system: MT4
Assay: Effective concentration required to achieve 50% inhibition of HIV-1 IIIB multiplication in hT4 lymphoblastoid MT-4 cells using MTT assay
Assay type: functional, cell-based
Conditions: Homo sapiens
For each record, write down the corresponding pEC50.
The value called pEC50 is obtained by taking minus log10 of the concentration in mol/L.

Provide only the value of recorded pEC50 for CCc1c(Sc2cc(C)cc(C)c2)n(CCCCC(=O)OC)c(=O)[nH]c1=O
6.48

Retrieve pEC50 measured for Cc1cn([C@H]2C[C@H](N=[N+]=[N-])[C@@H](CO)O2)c(=O)[nH]c1=O [ZIDOVUDINE] and print it.
7.70
